Reported inhibition at 1 µM values follow for various molecules
STUDY_TARGET: PD brain-derived alpha-synuclein aggregates (Homo sapiens, UniProt P37840)
Construct: from tissue; host or cells: human PD donor brain, sarkosyl-insoluble pellet
EXPERIMENT_DESCRIPTION: Micro-radiobinding competition assay for the determination of binding affinity
DETAILS: 1 μM non-radiolabelled compound; competition over tritiated [3H]-Example-1 ligand; human PD brain-derived alpha-synuclein aggregates; read-out: Micro-radiobinding competition assay Competition at 1 μM (%)
Method: The procedure was adapted from the protocol described in Spillantini et al., 1998. Frozen tissue blocks from PD donors were thawed on ice and homogenized using a glass dounce homogenizer. […] PD brain-derived alpha-synuclein aggregates were spotted onto microarray slides. […] In some cases, the non-radiolabelled example compounds were further assessed for a range of different concentrations, varying from 0.05 nM to 2 μM. […]
Structures can show the parent of a compound that is named as a salt.
API: value field is a number in %; no unit string.

Cn1ccc(N2Cc3cc(-c4ccc(N5CC[C@H](F)C5)nc4)nn3C2=O)n1 [Example 7, hydrochloride] | 96
Cn1cc(N2Cc3cc(-c4ccc(OCCF)nc4)nn3C2=O)cn1 | 89
O=C1N(c2cncs2)Cc2cc(-c3ccc(N4CCC(F)C4)nc3)nn21 (stereo in doubt) | 98

Next:
Asked: // query inhibition at 1 µM value for entry `Cc1nc(N2CC[C@H](F)C2)ccc1-c1cc2n(n1)C(=O)N(c1cccnc1)C2`
Given back: 80

###

STUDY_TARGET: PD brain-derived alpha-synuclein aggregates (Homo sapiens, UniProt P37840)
Construct: from tissue; host or cells: human PD donor brain, sarkosyl-insoluble pellet
EXPERIMENT_DESCRIPTION: Micro-radiobinding competition assay for the determination of binding affinity
DETAILS: 1 μM non-radiolabelled compound; competition over tritiated [3H]-Example-1 ligand; human PD brain-derived alpha-synuclein aggregates; read-out: Micro-radiobinding competition assay Competition at 1 μM (%)
MEASURED_PROPERTY: inhibition at 1 µM (%)
API: value field is a number in %; no unit string.

Example cases with answers are listed next.
O=C1N(c2cccnc2)Cc2cc(-c3cnc(N4CC[C@H](F)C4)c(F)c3)nn21 [Example 13] | 71
O=C1N(c2cccnc2)Cc2cc(-c3cnc(N4CC[C@@H](F)C4)cn3)nn21 [Example 10] | 100

Asked: // query inhibition at 1 µM value for entry Cc1ncc(N2Cc3cc(-c4ccc(N5CC[C@H](F)C5)nc4)nn3C2=O)s1 [Example 19]
Given back: 78

Asked: // query inhibition at 1 µM value for entry Cc1nc(N2CC[C@@H](F)C2)ccc1-c1cc2n(n1)C(=O)N(c1cccnc1)C2 [Example 14]
Given back: 85

###

STUDY_TARGET: PD brain-derived alpha-synuclein aggregates (Homo sapiens, UniProt P37840)
Construct: from tissue; host or cells: human PD donor brain, sarkosyl-insoluble pellet
EXPERIMENT_DESCRIPTION: Micro-radiobinding competition assay for the determination of binding affinity
DETAILS: 100 nM non-radiolabelled compound; competition over tritiated [3H]-Example-1 ligand; human PD brain-derived alpha-synuclein aggregates; read-out: Micro-radiobinding competition assay Competition at 100 nM (%)
Counter-ions that a name gives are not always drawn.
Tick Y if inhibition at 0.1 µM is 60% or greater. Tick N if inhibition at 0.1 µM is less than 60%.

Solved cases below.
Cc1ncc(N2Cc3cc(-c4ccc(N5CC[C@@H](F)C5)nc4)nn3C2=O)s1 [Example 18] | N
O=C1N(c2ccns2)Cc2cc(-c3ccc(N4CC[C@@H](F)C4)nc3)nn21 [Example 20] | Y
O=C1N(c2cccnc2)Cc2cc(-c3cnc(N4CC[C@@H](F)C4)c(F)c3)nn21 [Example 12] | Y
O=C1N(c2cccnc2)Cc2cc(-c3ccc(N4CC[C@@H](F)C4)nc3)nn21 [Example 2, hydrochloride] | Y
Cc1ncc(N2Cc3cc(-c4ccc(N5CC[C@H](F)C5)nc4)nn3C2=O)s1 [Example 19] | N

Asked: Tell me whether inhibition at 0.1 µM is at least 60% here: Cn1cc(N2Cc3cc(-c4ccc(OCCF)nc4)nn3C2=O)cn1 [Example 22]
Given back: N

###

Reported Ki values follow for various molecules
STUDY_TARGET: PD brain-derived alpha-synuclein aggregates (Homo sapiens)
EXPERIMENT_DESCRIPTION: Micro-radiobinding competition assay for the determination of binding affinity
DETAILS: human PD brain-derived alpha-synuclein aggregates; * = mean of two independent experiments, two donors
Counter-ions that a name gives are not always drawn.
API: value field is a number in nM; no unit string.

Asked: // query Ki value for entry `O=C1N(c2cccnc2)Cc2cc(-c3cnc(N4CC[C@H](F)C4)c(F)c3)nn21`
Given back: 101

Asked: // query Ki value for entry O=C1N(c2cccnc2)Cc2cc(-c3ccc(N4CC[C@H](F)C4)nc3)nn21 [Example 1, hydrochloride]
Given back: 69

###

STUDY_TARGET: PD brain-derived alpha-synuclein aggregates (Homo sapiens, UniProt P37840)
Construct: from tissue; host or cells: human PD donor brain, sarkosyl-insoluble pellet
EXPERIMENT_DESCRIPTION: Micro-radiobinding competition assay for the determination of binding affinity
DETAILS: 1 μM non-radiolabelled compound; competition over tritiated [3H]-Example-1 ligand; human PD brain-derived alpha-synuclein aggregates; read-out: Micro-radiobinding competition assay Competition at 1 μM (%)
Structures can show the parent of a compound that is named as a salt.
Reported inhibition at 1 µM values follow for various compounds
API: value field is a number in %; no unit string.

O=C1N(c2ccccn2)Cc2cc(-c3ccc(N4CC[C@@H](F)C4)nc3)nn21 | 89
O=C1N(c2ccns2)Cc2cc(-c3ccc(N4CC[C@H](F)C4)nc3)nn21 | 90
O=C1N(c2cccnc2)Cc2cc(-c3cnc(N4CC[C@@H](F)C4)c(F)c3)nn21 | 90

Asked: // query inhibition at 1 µM value for entry O=C1N(c2ccccn2)Cc2cc(-c3ccc(N4CC[C@H](F)C4)nc3)nn21 [Example 4, hydrochloride]
Given back: 100

Asked: // query inhibition at 1 µM value for entry `O=C1N(c2cncs2)Cc2cc(-c3ccc(OCCF)nc3)nn21`
Given back: 82

Asked: // query inhibition at 1 µM value for entry `O=C1N(c2cccnc2)Cc2cc(-c3cnc(N4CC[C@H](F)C4)cn3)nn21`
Given back: 76

Asked: // query inhibition at 1 µM value for entry O=C1N(c2cccnc2)Cc2cc(-c3ccc(N4CC[C@H](F)C4)nc3)nn21 [Example 1, hydrochloride]
Given back: 91

Asked: // query inhibition at 1 µM value for entry O=C1N(c2cccnc2)Cc2cc(-c3ccc(N4CC[C@@H](F)C4)nc3)nn21 [Example 2, hydrochloride]
Given back: 97

Asked: // query inhibition at 1 µM value for entry `O=C1N(c2ccns2)Cc2cc(-c3ccc(N4CC[C@@H](F)C4)nc3)nn21`
Given back: 87

Asked: // query inhibition at 1 µM value for entry `Cc1ncc(N2Cc3cc(-c4ccc(N5CC[C@@H](F)C5)nc4)nn3C2=O)s1`
Given back: 83

Asked: // query inhibition at 1 µM value for entry O=C1N(c2ccncc2)Cc2cc(-c3ccc(N4CC[C@H](F)C4)nc3)nn21 [Example 5, hydrochloride]
Given back: 89

###

STUDY_TARGET: PD brain-derived alpha-synuclein aggregates (Homo sapiens, UniProt P37840)
Construct: from tissue; host or cells: human PD donor brain, sarkosyl-insoluble pellet
EXPERIMENT_DESCRIPTION: Micro-radiobinding competition assay for the determination of binding affinity
DETAILS: 100 nM non-radiolabelled compound; competition over tritiated [3H]-Example-1 ligand; human PD brain-derived alpha-synuclein aggregates; read-out: Micro-radiobinding competition assay Competition at 100 nM (%)
Structures can show the parent of a compound that is named as a salt.
MEASURED_PROPERTY: inhibition at 0.1 µM (%)
API: value field is a number in %; no unit string.

O=C1N(c2ccncc2)Cc2cc(-c3ccc(N4CC[C@H](F)C4)nc3)nn21 [Example 5, hydrochloride] | 59
Cn1ccc(N2Cc3cc(-c4ccc(N5CC[C@H](F)C5)nc4)nn3C2=O)n1 [Example 7, hydrochloride] | 73
O=C1N(c2ccccn2)Cc2cc(-c3ccc(N4CC[C@H](F)C4)nc3)nn21 [Example 4, hydrochloride] | 94

Next:
Asked: // query inhibition at 0.1 µM value for entry Cc1nc(N2CC[C@@H](F)C2)ccc1-c1cc2n(n1)C(=O)N(c1cccnc1)C2 [Example 14]
Given back: 56

###

STUDY_TARGET: PD brain-derived alpha-synuclein aggregates (Homo sapiens, UniProt P37840)
EXPERIMENT_DESCRIPTION: Micro-radiobinding competition assay for the determination of binding affinity
DETAILS: human PD brain-derived alpha-synuclein aggregates; * = mean of two independent experiments, two donors
Counter-ions that a name gives are not always drawn.
MEASURED_PROPERTY: pKi
Entry type: numeric. Quantity: pKi, the -log10 of concentration in molar units.

Example cases with answers are listed next.
O=C1N(c2cccnc2)Cc2cc(-c3cnc(N4CC[C@@H](F)C4)c(F)c3)nn21 [Example 12] | 7.47
O=C1N(c2cccnc2)Cc2cc(-c3ccc(N4CC[C@@H](F)C4)nc3)nn21 [Example 2, hydrochloride] | 7.34
O=C1N(c2cccnc2)Cc2cc(-c3cnc(N4CC[C@H](F)C4)cn3)nn21 [Example 11] | 6.60

Next:
Asked: // query pKi value for entry Cc1nc(N2CC[C@H](F)C2)ccc1-c1cc2n(n1)C(=O)N(c1cccnc1)C2 [Example 15]
Given back: 6.85

// data source = patent US20250018068A1
